assay.details: Solubility test in water, SGF, FaSSIF and FeSSIF (37° C., HPLC)
Format: physicochemical
test.conditions: fed-state simulated intestinal fluid (FeSSIF), 37 °C, fessif, thermodynamic from solid, Fed-state simulated intestinal fluid (FeSSIF), 30 min, 37° C.; read-out: Solubility (based on a compound of formula I)
assay.endpoint: solubility at 30 min (µg/mL)

# chem.smiles, quantity.unit, endpoint.result
data = [
    ("C[C@@H](O)c1nc2cnc3ccoc3c2n1[C@H]1CC[C@H](CC#N)OC1", "µg/mL", 260),
]

###

assay.details: Solubility test in water, SGF, FaSSIF and FeSSIF (37° C., HPLC)
Type: physicochemical
test.conditions: fed-state simulated intestinal fluid (FeSSIF), 37 °C, fessif, thermodynamic from solid, Fed-state simulated intestinal fluid (FeSSIF), 2 h, 37° C.; read-out: Solubility (based on a compound of formula I)
Description: […] The sample concentrations were calculated with an external standard method.

# chem.smiles, solubility at 2 h
data = [
    ("C[C@@H](O)c1nc2cnc3ccoc3c2n1[C@H]1CC[C@H](CC#N)OC1", "230 µg/mL"),
]

###

assay.details: Solubility test in water, SGF, FaSSIF and FeSSIF (37° C., HPLC)
Format: physicochemical
test.conditions: simulated gastric fluid (SGF), 37 °C, simulated gastric fluid, thermodynamic from solid, Simulated gastric fluid (SGF), 30 min, 37° C.; read-out: Solubility (based on a compound of formula I)
assay.endpoint: solubility at 30 min

# chem.smiles, endpoint.result
rows = [
    ("C[C@@H](O)c1nc2cnc3ccoc3c2n1[C@H]1CC[C@H](CC#N)OC1", "30.2 mg/mL"),
]

###

assay.details: Solubility test in water, SGF, FaSSIF and FeSSIF (37° C., HPLC)
Assay type: physicochemical
test.conditions: fasted-state simulated intestinal fluid (FaSSIF), 37 °C, fassif, thermodynamic from solid, Fasted-state simulated intestinal fluid (FaSSIF), 24 h, 37° C.; read-out: Solubility (based on a compound of formula I)
assay.endpoint: solubility at 24 h

# chem.smiles, endpoint.result
rows = [
    ("C[C@@H](O)c1nc2cnc3ccoc3c2n1[C@H]1CC[C@H](CC#N)OC1", "160 µg/mL"),
]

###

assay.details: Solubility test in water, SGF, FaSSIF and FeSSIF (37° C., HPLC)
Assay type: physicochemical
test.conditions: simulated gastric fluid (SGF), 37 °C, simulated gastric fluid, thermodynamic from solid, Simulated gastric fluid (SGF), 4 h, 37° C.; read-out: Solubility (based on a compound of formula I)

# chem.smiles, solubility at 4 h (mg/mL)
data = [
    ("C[C@@H](O)c1nc2cnc3ccoc3c2n1[C@H]1CC[C@H](CC#N)OC1", 29.5),
]

###

assay.details: Solubility test in water, SGF, FaSSIF and FeSSIF (37° C., HPLC)
Format: physicochemical
test.conditions: fasted-state simulated intestinal fluid (FaSSIF), 37 °C, fassif, thermodynamic from solid, Fasted-state simulated intestinal fluid (FaSSIF), 4 h, 37° C.; read-out: Solubility (based on a compound of formula I)
assay.endpoint: solubility at 4 h (µg/mL)

# chem.smiles, endpoint.result
data = [
    ("C[C@@H](O)c1nc2cnc3ccoc3c2n1[C@H]1CC[C@H](CC#N)OC1", 170),
]

# credit: patent US12195476B2
